Just for reference, patent US8309546B2 is where these values come from.

PI3Kα (Homo sapiens, UniProt P42336): recorded IC50 for assorted compounds
Sequence (P42336 whole entry, species assumed): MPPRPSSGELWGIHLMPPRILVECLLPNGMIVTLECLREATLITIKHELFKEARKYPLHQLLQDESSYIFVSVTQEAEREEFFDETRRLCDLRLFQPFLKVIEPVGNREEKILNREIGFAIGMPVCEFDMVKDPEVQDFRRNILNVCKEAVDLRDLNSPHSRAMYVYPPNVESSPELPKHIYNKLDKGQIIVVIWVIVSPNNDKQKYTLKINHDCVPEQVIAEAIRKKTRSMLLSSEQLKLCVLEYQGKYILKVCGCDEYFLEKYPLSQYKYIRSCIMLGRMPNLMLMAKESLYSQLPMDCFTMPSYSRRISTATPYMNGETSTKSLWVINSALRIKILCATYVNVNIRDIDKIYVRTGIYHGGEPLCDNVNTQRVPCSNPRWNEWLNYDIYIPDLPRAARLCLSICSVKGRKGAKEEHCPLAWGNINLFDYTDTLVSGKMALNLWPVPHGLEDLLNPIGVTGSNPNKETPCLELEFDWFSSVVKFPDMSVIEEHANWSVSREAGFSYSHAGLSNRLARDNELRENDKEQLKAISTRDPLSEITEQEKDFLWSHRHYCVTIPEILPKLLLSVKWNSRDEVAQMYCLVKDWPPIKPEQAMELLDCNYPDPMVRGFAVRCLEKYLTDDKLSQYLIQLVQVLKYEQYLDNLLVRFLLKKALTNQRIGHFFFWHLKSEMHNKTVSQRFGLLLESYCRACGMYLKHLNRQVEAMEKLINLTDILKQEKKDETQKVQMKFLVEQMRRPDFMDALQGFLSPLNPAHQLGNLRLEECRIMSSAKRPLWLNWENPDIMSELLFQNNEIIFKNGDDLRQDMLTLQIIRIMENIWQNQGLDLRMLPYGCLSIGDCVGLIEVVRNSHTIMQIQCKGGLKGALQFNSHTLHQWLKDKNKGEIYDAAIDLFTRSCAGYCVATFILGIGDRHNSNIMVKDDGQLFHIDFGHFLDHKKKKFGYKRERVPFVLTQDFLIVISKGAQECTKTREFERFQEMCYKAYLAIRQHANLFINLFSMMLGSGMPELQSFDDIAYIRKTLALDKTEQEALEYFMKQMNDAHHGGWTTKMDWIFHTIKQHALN
Sequence (P27986 whole entry partner, species assumed): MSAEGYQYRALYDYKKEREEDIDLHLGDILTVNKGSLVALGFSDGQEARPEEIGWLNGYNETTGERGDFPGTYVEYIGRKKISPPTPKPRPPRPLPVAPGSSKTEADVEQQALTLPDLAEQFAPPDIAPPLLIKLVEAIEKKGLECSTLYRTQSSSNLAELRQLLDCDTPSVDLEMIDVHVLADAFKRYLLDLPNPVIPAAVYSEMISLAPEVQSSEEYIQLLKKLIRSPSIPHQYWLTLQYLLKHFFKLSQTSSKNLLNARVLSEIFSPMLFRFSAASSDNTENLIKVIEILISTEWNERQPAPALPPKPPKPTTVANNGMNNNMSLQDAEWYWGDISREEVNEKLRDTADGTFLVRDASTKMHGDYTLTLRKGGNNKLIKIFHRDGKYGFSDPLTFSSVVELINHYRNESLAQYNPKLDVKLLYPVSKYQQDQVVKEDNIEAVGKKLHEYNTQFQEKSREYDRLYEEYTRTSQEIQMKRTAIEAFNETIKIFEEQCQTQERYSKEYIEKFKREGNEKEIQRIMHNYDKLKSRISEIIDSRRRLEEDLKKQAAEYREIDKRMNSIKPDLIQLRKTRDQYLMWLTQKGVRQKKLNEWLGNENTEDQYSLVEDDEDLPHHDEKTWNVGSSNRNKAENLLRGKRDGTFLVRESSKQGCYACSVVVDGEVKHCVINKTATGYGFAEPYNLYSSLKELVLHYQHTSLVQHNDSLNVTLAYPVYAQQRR

Some compounds with recorded IC50:
C[C@H](O)C(=O)N1CCN(c2nc3c(N4CCOCC4)nc(-c4cnc(N)nc4)nc3n2CC(F)(F)F)CC1 [Example 68]: 0.01 to 0.02 µM
C[C@H](O)C(=O)N1CCN(c2nc3c(N4CCOCC4)nc(-c4cnc(N)nc4)nc3n2CC2CC2)CC1 [Example 88]: < 0.01 µM
C[C@@H]1CN(c2nc3c(N4CCOCC4)nc(-c4cnc(N)nc4)nc3n2CC(F)(F)F)CCN1C(=O)CO [Example 126]: < 0.01 µM
CNCC(=O)N1CCN(c2nc3c(N4CCOCC4)nc(-c4cnc(N)nc4)nc3n2CC2CC2)CC1 [Example 41]: < 0.01 µM
Cc1nc(N)ncc1-c1nc(N2CCOCC2)c2nc(NCCNS(C)(=O)=O)n(CC3CC3)c2n1 [Example 32]: 0.02 to 0.05 µM

Query IC50 on PI3Kα (Homo sapiens, UniProt P42336) for C[C@@H](O)CC(=O)N1CCN(c2nc3c(N4CCOCC4)nc(-c4cnc(N)nc4)nc3n2CC(F)(F)F)CC1 [Example 70]
0.01 to 0.02 µM

Query IC50 on PI3Kα (Homo sapiens, UniProt P42336) for CC(=O)C(=O)N1CCN(c2nc3c(N4CCOCC4)nc(-c4cnc(N)nc4)nc3n2CC(F)(F)F)CC1 [Example 65]
< 0.01 µM

---

UniProt:P42345: recorded pIC50 for assorted compounds
Sequence (P42345 1362-2549): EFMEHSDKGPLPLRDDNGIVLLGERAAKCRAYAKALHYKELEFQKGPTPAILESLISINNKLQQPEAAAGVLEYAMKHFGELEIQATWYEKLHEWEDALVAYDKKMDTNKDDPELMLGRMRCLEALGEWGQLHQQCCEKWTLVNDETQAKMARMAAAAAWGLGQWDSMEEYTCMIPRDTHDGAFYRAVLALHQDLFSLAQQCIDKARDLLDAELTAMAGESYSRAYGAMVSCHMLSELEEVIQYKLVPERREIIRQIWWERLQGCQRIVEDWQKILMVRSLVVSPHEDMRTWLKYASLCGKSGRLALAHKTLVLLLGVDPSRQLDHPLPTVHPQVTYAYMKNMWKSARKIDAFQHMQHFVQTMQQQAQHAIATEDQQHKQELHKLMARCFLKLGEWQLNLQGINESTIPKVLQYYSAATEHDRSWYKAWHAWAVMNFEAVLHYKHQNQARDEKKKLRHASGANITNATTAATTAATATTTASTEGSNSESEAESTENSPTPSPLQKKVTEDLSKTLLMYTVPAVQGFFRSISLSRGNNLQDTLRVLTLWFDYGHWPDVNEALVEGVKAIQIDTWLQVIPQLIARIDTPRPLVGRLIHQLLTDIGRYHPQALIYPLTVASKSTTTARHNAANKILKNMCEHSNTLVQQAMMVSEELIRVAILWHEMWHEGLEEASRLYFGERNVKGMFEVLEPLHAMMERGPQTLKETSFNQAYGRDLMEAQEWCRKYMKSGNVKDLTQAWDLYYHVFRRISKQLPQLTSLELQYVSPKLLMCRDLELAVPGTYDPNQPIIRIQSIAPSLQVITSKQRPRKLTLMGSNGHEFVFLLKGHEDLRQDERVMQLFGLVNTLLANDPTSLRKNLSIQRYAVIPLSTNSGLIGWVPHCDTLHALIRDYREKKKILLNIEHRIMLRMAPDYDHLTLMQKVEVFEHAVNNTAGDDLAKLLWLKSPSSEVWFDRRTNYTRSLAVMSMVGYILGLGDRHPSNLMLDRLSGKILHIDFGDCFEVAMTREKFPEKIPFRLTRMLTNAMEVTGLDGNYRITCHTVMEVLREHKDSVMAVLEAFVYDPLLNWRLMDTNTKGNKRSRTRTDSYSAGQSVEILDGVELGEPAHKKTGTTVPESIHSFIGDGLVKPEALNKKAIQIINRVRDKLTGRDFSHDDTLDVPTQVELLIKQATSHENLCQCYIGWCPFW
pIC50: −log10 of the molar value.

C[C@H](O)CC(=O)N1CCN(c2nc3c(N4CCOCC4)nc(-c4cnc(N)nc4)nc3n2CC(F)(F)F)CC1: > 8.00
CNc1ncc(-c2nc(N3CCOCC3)c3nc(N4CCN(CC(=O)N(C)C)[C@H](C)C4)n(CC(F)(F)F)c3n2)cn1: 7.52 to 8.00
CS(=O)(=O)N1CCN(c2nc3c(N4CCOCC4)nc(-c4cnc(N)nc4)nc3n2CC2CC2)CC1: 7.52 to 8.00

Query pIC50 on UniProt:P42345 for CN1CCN(c2nc3c(N4CCOCC4)nc(-c4cnc(N)nc4)nc3n2CC(F)(F)F)CC1
7.52 to 8.00

Query pIC50 on UniProt:P42345 for CC[C@H]1CN(c2nc3c(N4CCOCC4)nc(-c4cnc(N)nc4)nc3n2CC(F)(F)F)CCN1C(C)=O
> 8.00

---

Tested on: Akt (threonine 308) phosphorylation in AN3CA tumor
Assay: Akt phosphorylation inhibition assay in xenograft
Format: in vivo, female nude mouse
Conditions: Mus musculus, AN3-CA, oral, 6 hr after dosing
measuredParameter: inhibition at 10 mg/kg

Some compounds with recorded inhibition at 10 mg/kg:
CC(C)Cn1c(N2CCN(C(=O)C[C@H](C)O)[C@H](C)C2)nc2c(N3CCOCC3)nc(-c3cnc(N)nc3)nc21 [Example 86]: > 60%
CCC(=O)N1CCN(c2nc3c(N4CCOCC4)nc(-c4cnc(N)nc4)nc3n2CC(F)(F)F)CC1 [Example 117]: 30 to 60%

Query inhibition at 10 mg/kg on Akt (threonine 308) phosphorylation in AN3CA tumor for CC(=O)N1CCN(c2nc3c(N4CCOCC4)nc(-c4cnc(N)nc4)nc3n2CC2CC2)C[C@H]1C [Example 97]
30 to 60%

Query inhibition at 10 mg/kg on Akt (threonine 308) phosphorylation in AN3CA tumor for CC(C)Cn1c(N2CCN(C(=O)[C@@H](C)O)CC2)nc2c(N3CCOCC3)nc(-c3cnc(N)nc3)nc21 [Example 93]
> 60%

Query inhibition at 10 mg/kg on Akt (threonine 308) phosphorylation in AN3CA tumor for CC(C)Cn1c(N2CCN(C(=O)C[C@@H](C)O)[C@H](C)C2)nc2c(N3CCOCC3)nc(-c3cnc(N)nc3)nc21 [Example 84]
> 60%

Query inhibition at 10 mg/kg on Akt (threonine 308) phosphorylation in AN3CA tumor for C[C@H]1CN(c2nc3c(N4CCOCC4)nc(-c4cnc(N)nc4)nc3n2CC(F)(F)F)CCN1C=O [Example 111]
> 60%

Query inhibition at 10 mg/kg on Akt (threonine 308) phosphorylation in AN3CA tumor for CC[C@H]1CN(c2nc3c(N4CCOCC4)nc(-c4cnc(N)nc4)nc3n2CC(F)(F)F)CCN1S(C)(=O)=O [Example 76]
> 60%

Query inhibition at 10 mg/kg on Akt (threonine 308) phosphorylation in AN3CA tumor for CNc1ncc(-c2nc(N3CCOCC3)c3nc(N4CCN(CC(=O)N(C)C)[C@H](C)C4)n(CC(F)(F)F)c3n2)cn1 [Example 87]
> 60%

Query inhibition at 10 mg/kg on Akt (threonine 308) phosphorylation in AN3CA tumor for CC(C)Cn1c(N2CCN(C=O)CC2)nc2c(N3CCOCC3)nc(-c3cnc(N)nc3)nc21 [Example 90]
> 60%

Query inhibition at 10 mg/kg on Akt (threonine 308) phosphorylation in AN3CA tumor for C[C@@H]1CN(c2nc3c(N4CCOCC4)nc(-c4cnc(N)nc4)nc3n2CC2CC2)CCN1C(=O)[C@@H](C)O [Example 114]
> 60%

Query inhibition at 10 mg/kg on Akt (threonine 308) phosphorylation in AN3CA tumor for Nc1ncc(-c2nc(N3CCOCC3)c3nc(N4CCN(C(=O)CO)CC4)n(CC(F)(F)F)c3n2)cn1 [Example 67]
30 to 60%

Query inhibition at 10 mg/kg on Akt (threonine 308) phosphorylation in AN3CA tumor for CS(=O)(=O)N1CCN(c2nc3c(N4CCOCC4)nc(-c4cnc(N)nc4)nc3n2CC2CC2)CC1 [Example 3]
> 60%

Query inhibition at 10 mg/kg on Akt (threonine 308) phosphorylation in AN3CA tumor for CNc1ncc(-c2nc(N3CCOCC3)c3nc(N4CCN(C(C)=O)[C@@H](C)C4)n(CC(F)(F)F)c3n2)cn1 [Example 107]
> 60%

Query inhibition at 10 mg/kg on Akt (threonine 308) phosphorylation in AN3CA tumor for CC(C)Cn1c(N2CCN(C(=O)C[C@@H](C)O)[C@@H](C)C2)nc2c(N3CCOCC3)nc(-c3cnc(N)nc3)nc21 [Example 83]
> 60%

Query inhibition at 10 mg/kg on Akt (threonine 308) phosphorylation in AN3CA tumor for Cc1nc(N)ncc1-c1nc(N2CCOCC2)c2nc(N3CCN(S(C)(=O)=O)CC3)n(CC3CC3)c2n1 [Example 6]
> 60%

---

UniProt P42345: recorded IC50 for assorted compounds

Some compounds with recorded IC50:
CC(C)Cn1c(N2CCN(C=O)CC2)nc2c(N3CCOCC3)nc(-c3cnc(N)nc3)nc21 [Example 90]: 10 to 30 nM
CC(=O)N1CCN(c2nc3c(N4CCOCC4)nc(-c4cnc(N)nc4)nc3n2CC(C)C)CC1 [Example 2]: 10 to 30 nM
CC(=O)N1CCN(c2nc3c(N4CCOCC4)nc(-c4cnc(N)nc4)nc3n2CC(C)C)C[C@@H]1C [Example 101]: < 10 nM

Now take the following compound into account.
Query IC50 on UniProt P42345 for C[C@H]1COCCN1c1nc(-c2cnc(N)nc2)nc2c1nc(N1CCN(S(C)(=O)=O)CC1)n2CC(F)(F)F [Example 127]
< 10 nM

---

Tested on: Akt (threonine 308) phosphorylation in AN3CA tumor
Test: Akt phosphorylation inhibition assay in xenograft
Assay type: in vivo, female nude mouse
Conditions: Mus musculus, AN3-CA, oral, 6 hr after dosing
measuredParameter: inhibition at 10 mg/kg

C[C@@H]1CN(c2nc3c(N4CCOCC4)nc(-c4cnc(N)nc4)nc3n2CC(F)(F)F)CCN1S(C)(=O)=O: > 60%
CC(C)Cn1c(N2CCN(C(=O)C[C@H](C)O)[C@@H](C)C2)nc2c(N3CCOCC3)nc(-c3cnc(N)nc3)nc21: > 60%
CC(C)Cn1c(N2CCN(C=O)[C@H](C)C2)nc2c(N3CCOCC3)nc(-c3cnc(N)nc3)nc21: > 60%
CC(C)Cn1c(N2CCN(C(=O)[C@H](C)O)[C@@H](C)C2)nc2c(N3CCOCC3)nc(-c3cnc(N)nc3)nc21: > 60%

Now take the following compound into account.
Data request, read-out inhibition at 10 mg/kg, for CC(C)Cn1c(N2CCN(C(=O)CO)CC2)nc2c(N3CCOCC3)nc(-c3cnc(N)nc3)nc21
> 60%

---

System: Akt (threonine 308) phosphorylation in AN3CA tumor
Assay: Akt phosphorylation inhibition assay in xenograft
Type: in vivo, female nude mouse
Conditions: Mus musculus, AN3-CA, oral, 6 hr after dosing
Reported values of inhibition at 10 mg/kg for individual entries

CC(=O)N1[C@H](C)CN(c2nc3c(N4CCOCC4)nc(-c4cnc(N)nc4)nc3n2CC(F)(F)F)C[C@@H]1C: > 60%
CC(C)Cn1c(N2CCN(C(=O)C[C@H](C)O)CC2)nc2c(N3CCOCC3)nc(-c3cnc(N)nc3)nc21: > 60%
CN(C)C(=O)C(=O)N1CCN(c2nc3c(N4CCOCC4)nc(-c4cnc(N)nc4)nc3n2CC(F)(F)F)CC1: 30 to 60%
CC(C)Cn1c(N2CCN(C(=O)C[C@@H](C)O)CC2)nc2c(N3CCOCC3)nc(-c3cnc(N)nc3)nc21: > 60%
CC(=O)N1CCN(c2nc3c(N4CCOCC4)nc(-c4cnc(N)nc4)nc3n2CC(F)(F)F)C[C@H]1C: > 60%

Now take the following compound into account.
Data request, read-out inhibition at 10 mg/kg, for CC(=O)N1[C@H](C)CN(c2nc3c(N4CCOCC4)nc(-c4cnc(N)nc4)nc3n2CC2CC2)C[C@@H]1C
30 to 60%
